System: HMEC
test details: Cytotoxicity in human HMEC cells assessed as inhibition of cell proliferation measured by CCK-8 assay
Type: functional, cell-based
Kindly state IC50 for each of the entries shown.
Numbers only here, please. The scale is µM.

IC50 lookup needed for CCCCCCCCCCCCCC(=O)O[C@H]1c2cc3c(cc2[C@@H](c2cc(OC)c(OC)c(OC)c2)[C@H]2C(=O)OC[C@@H]21)OCO3 , thanks.
2.75

Recorded IC50 for CCCCCCCCCCCCCCCC(=O)O[C@H]1c2cc3c(cc2[C@@H](c2cc(OC)c(OC)c(OC)c2)[C@H]2C(=O)OC[C@@H]21)OCO3 , please?
5.38

IC50 for COc1cc([C@@H]2c3cc4c(cc3[C@H](OC(=O)[C@H](C)NC(=O)OC(C)(C)C)[C@H]3COC(=O)[C@H]23)OCO4)cc(OC)c1OC ?
8.42

###

System: HMEC
test details: Cytotoxicity in human HMEC cells assessed as inhibition of cell proliferation measured by CCK-8 assay
Type: functional, cell-based
With a cut-off of 2000 nM, any IC50 strictly below it is called true; any IC50 meeting it or above is called false.

I'd appreciate it if you could check whether C/C=C/C=C/C(=O)O[C@H]1c2cc3c(cc2[C@@H](c2cc(OC)c(OC)c(OC)c2)[C@H]2C(=O)OC[C@@H]21)OCO3 has IC50 smaller than 2000 nM.
true

Determine if COc1cc([C@@H]2c3cc4c(cc3[C@H](OC(=O)[C@H](Cc3ccccc3)NC(=O)OC(C)(C)C)[C@H]3COC(=O)[C@H]23)OCO4)cc(OC)c1OC shows IC50 strictly lower than 2000 nM.
false

# check: IC50 < 2000 nM for C/C=C/C(=O)O[C@H]1c2cc3c(cc2[C@@H](c2cc(OC)c(OC)c(OC)c2)[C@H]2C(=O)OC[C@@H]21)OCO3
true

is_below(IC50, 2000 nM) for COc1cc([C@@H]2c3cc4c(cc3[C@H](OC(=O)c3cccs3)[C@H]3COC(=O)[C@H]23)OCO4)cc(OC)c1OC ?
true

State whether 2000 nM exceeds IC50 recorded for COc1cc([C@@H]2c3cc4c(cc3[C@H](OC(=O)[C@H](CCSC)NC(=O)OC(C)(C)C)[C@H]3COC(=O)[C@H]23)OCO4)cc(OC)c1OC .
false

Check if IC50 falls below 2000 nM for COc1cc([C@@H]2c3cc4c(cc3[C@H](OC(=O)[C@H](CC(C)C)NC(=O)OC(C)(C)C)[C@H]3COC(=O)[C@H]23)OCO4)cc(OC)c1OC .
false

Is it true that IC50 reported for CCCCCCCCCCCCCCCCCC(=O)O[C@H]1c2cc3c(cc2[C@@H](c2cc(OC)c(OC)c(OC)c2)[C@H]2C(=O)OC[C@@H]21)OCO3 is less than 2000 nM?
false

Please indicate whether the reported IC50 of COc1cc([C@@H]2c3cc4c(cc3[C@H](OC(=O)[C@H](Cc3c[nH]c5ccccc35)NC(=O)OC(C)(C)C)[C@H]3COC(=O)[C@H]23)OCO4)cc(OC)c1OC is strictly below 2000 nM.
true

Is it true that IC50 reported for COc1cc([C@@H]2c3cc4c(cc3[C@H](OC(=O)[C@@H](NC(=O)OC(C)(C)C)C(C)C)[C@H]3COC(=O)[C@H]23)OCO4)cc(OC)c1OC is less than 2000 nM?
false

Criterion: IC50 strictly below 2000 nM. Is it met by COc1cc([C@@H]2c3cc4c(cc3[C@H](OC(=O)CNC(=O)OC(C)(C)C)[C@H]3COC(=O)[C@H]23)OCO4)cc(OC)c1OC ?
true

Does COc1cc([C@@H]2c3cc4c(cc3[C@H](OC(=O)c3ccc(Br)s3)[C@H]3COC(=O)[C@H]23)OCO4)cc(OC)c1OC have IC50 strictly under 2000 nM?
true

Hello, I'm reviewing records and need to know if IC50 of CCCCCCCCCCCC(=O)O[C@H]1c2cc3c(cc2[C@@H](c2cc(OC)c(OC)c(OC)c2)[C@H]2C(=O)OC[C@@H]21)OCO3 is below 2000 nM. Could you check?
true

###

Test system: HMEC
test details: Cytotoxicity in human HMEC cells assessed as inhibition of cell proliferation measured by CCK-8 assay
Assay type: functional, cell-based
Record form. Attribute: IC50. Fill in for each entry.
Quick note: give the figure in µM, leave out the unit.

Short answer please: IC50, HMEC, entry COc1cc([C@@H]2c3cc4c(cc3[C@H](OC(=O)c3sccc3Cl)[C@H]3COC(=O)[C@H]23)OCO4)cc(OC)c1OC
0.116

Item COc1cc([C@@H]2c3cc4c(cc3[C@H](OC(=O)[C@@H]3CCCN3C(=O)OC(C)(C)C)[C@H]3COC(=O)[C@H]23)OCO4)cc(OC)c1OC with HMEC - IC50?
3.23

Give recorded IC50 with HMEC for the following compound: CC[C@H](C)[C@H](NC(=O)OC(C)(C)C)C(=O)O[C@H]1c2cc3c(cc2[C@@H](c2cc(OC)c(OC)c(OC)c2)[C@H]2C(=O)OC[C@@H]21)OCO3
4.48

###

Test system: HepG2
test details: Cytotoxicity in human HepG2 cells assessed as inhibition of cell proliferation measured by CCK-8 assay
Format: functional, cell-based
readout label: IC50

Any idea what its IC50 is? The molecule is COc1cc([C@@H]2c3cc4c(cc3[C@H](OC(=O)[C@@H](NC(=O)OC(C)(C)C)C(C)C)[C@H]3COC(=O)[C@H]23)OCO4)cc(OC)c1OC
10.9 µM

Please report the recorded IC50 for COc1cc([C@@H]2c3cc4c(cc3[C@H](OC(=O)[C@H](Cc3c[nH]c5ccccc35)NC(=O)OC(C)(C)C)[C@H]3COC(=O)[C@H]23)OCO4)cc(OC)c1OC .
> 200 µM

Returns the measured IC50 for the input molecule. Input: COc1cc([C@@H]2c3cc4c(cc3[C@H](OC(=O)c3cccs3)[C@H]3COC(=O)[C@H]23)OCO4)cc(OC)c1OC
26.9 µM

Looking for the measured IC50 of COc1cc([C@@H]2c3cc4c(cc3[C@H](OC(=O)c3ccc(Br)s3)[C@H]3COC(=O)[C@H]23)OCO4)cc(OC)c1OC , can you help?
33.9 µM

Given COc1cc([C@@H]2c3cc4c(cc3[C@H](O)[C@H]3COC(=O)[C@H]23)OCO4)cc(OC)c1OC [PODOFILOX] , state its recorded IC50.
> 200 µM

I'd like to know its IC50. The molecule in question is COc1cc([C@@H]2c3cc4c(cc3[C@H](OC(=O)[C@H](C)NC(=O)OC(C)(C)C)[C@H]3COC(=O)[C@H]23)OCO4)cc(OC)c1OC
84.9 µM

###

Tested on: HepG2
test details: Cytotoxicity in human HepG2 cells assessed as inhibition of cell proliferation measured by CCK-8 assay
Type: functional, cell-based
I'd appreciate it if you could supply IC50 values for the items below.

Please look up its IC50: CC[C@H](C)[C@H](NC(=O)OC(C)(C)C)C(=O)O[C@H]1c2cc3c(cc2[C@@H](c2cc(OC)c(OC)c(OC)c2)[C@H]2C(=O)OC[C@@H]21)OCO3
866 nM

Dear colleague, I am looking for the recorded IC50 of the following compound: C/C=C/C=C/C(=O)O[C@H]1c2cc3c(cc2[C@@H](c2cc(OC)c(OC)c(OC)c2)[C@H]2C(=O)OC[C@@H]21)OCO3
2340 nM

# get_value(readout='IC50', item= COc1cc([C@@H]2c3cc4c(cc3[C@H](OC(=O)[C@H](Cc3ccccc3)NC(=O)OC(C)(C)C)[C@H]3COC(=O)[C@H]23)OCO4)cc(OC)c1OC )
> 200000 nM

###

Test system: A549
test details: Cytotoxicity in human A549 cells assessed as inhibition of cell proliferation measured by CCK-8 assay
Assay type: functional, cell-based
Assign pIC50 to each entry below.
Lab note — pIC50 values are minus log10 of concentrations in M.

Look at this compound and give its reported pIC50. COc1cc([C@@H]2c3cc4c(cc3[C@H](OC(=O)[C@H](C)NC(=O)OC(C)(C)C)[C@H]3COC(=O)[C@H]23)OCO4)cc(OC)c1OC
7.55

I have this compound here, COc1cc([C@@H]2c3cc4c(cc3[C@H](OC(=O)c3sccc3Cl)[C@H]3COC(=O)[C@H]23)OCO4)cc(OC)c1OC , and I need its recorded pIC50.
6.81

# get_value(readout='pIC50', item= COc1cc([C@@H]2c3cc4c(cc3[C@H](O)[C@H]3COC(=O)[C@H]23)OCO4)cc(OC)c1OC )
8.27

Could you share which pIC50 value was measured for CCCCCCCCCCCCCC(=O)O[C@H]1c2cc3c(cc2[C@@H](c2cc(OC)c(OC)c(OC)c2)[C@H]2C(=O)OC[C@@H]21)OCO3 ?
5.97
